test: Half life in rat at 1 mg/kg, iv; assay type: ADME, organism-based; set-up: dose 1 mg/kg, route intravenous; conditions: in vivo
endpoint label: half-life
Hi, when you answer, please include the unit after the number. Thanks!

Prompt line: Kindly indicate its recorded half-life. Item: COc1nc(C2=NN(c3ccc(C#N)c(C)c3)[C@@H](C3CCCC3)C2)ccc1C(=O)O
Response line: 2.3 h

###

assay: AUC in rat at 1 mg/kg, iv; assay type: ADME, organism-based; design: dose 1 mg/kg, route intravenous; details: plasma
endpoint label: AUC

Prompt line: Check the records and state AUC for COc1nc(C2=NN(c3ccc(C#N)c(C)c3)[C@@H](C3CCCC3)C2)ccc1C(=O)O
Response line: 494 ng·h/mL
